Test: gradient 5% acetonitrile 3 min, to 50% in 2 min, to 85% in 15 min, held 3 min, 100 µL/min
Details: column: Zorbax Extend-C18 2.1 x 50 mm; eluents: water / acetonitrile, 0.1% formic acid
RP-LC retention time values by entry
Expressed in s, but write only the number.

Example compounds with recorded RP-LC retention time:
# lookup: RP-LC retention time of CN1CCN(C(=O)c2csc(N3CCN(c4cccc(Cl)c4)CC3)n2)CC1
690

# lookup: RP-LC retention time of Cc1nc(Cn2cccc2C(=O)Nc2cccc(Br)c2)no1
936

# lookup: RP-LC retention time of Cc1ccc(NC(=O)N2CCc3c(c(-c4nc(C)no4)nn3C)C2)c(C)c1
762

# lookup: RP-LC retention time of CCN1c2ccc(F)cc2C(=O)NC12CCN(C(=O)c1cc(F)cc(F)c1)CC2
1030

# lookup: RP-LC retention time of O=C(CN1C(=O)CCc2cc(S(=O)(=O)N3CCCCC3)ccc21)NC1CCCc2ccccc21 (stereo not given)
935

# lookup: RP-LC retention time of CCOc1cc(C(=O)Nc2c(-c3ccc(F)cc3)nc3ccccn23)cc(OCC)c1OCC
788

# lookup: RP-LC retention time of O=C(Nc1ccccc1)c1cccn1Cc1noc(C2CC2)n1
885

# lookup: RP-LC retention time of O=C(Cn1nc(N2CCSCC2)c2ccccc2c1=O)Nc1ccccc1Cl
979

***
# lookup: RP-LC retention time of CC(C)CC(=O)Nc1ccc(-n2cnc(C(=O)NC3CCCC3)c2)nc1
772

# lookup: RP-LC retention time of O=C(NCCC1=CCCCC1)C(=O)Nc1ccc(Cl)cn1
1050

====

Experiment: gradient 5% acetonitrile 3 min, to 50% in 2 min, to 85% in 15 min, held 3 min, 100 µL/min
Settings: column: Zorbax Extend-C18 2.1 x 50 mm; eluents: water / acetonitrile, 0.1% formic acid
Values of RP-LC retention time greater than or equal to 800 s map to Fulfilled; values below map to Not fulfilled.

Examples with answers:
Quick check, RP-LC retention time >= 800 s? CCCn1c(=O)sc2cc(S(=O)(=O)N3CCC(C(=O)NC)CC3)ccc21
Not fulfilled

Quick check, RP-LC retention time >= 800 s? COc1ccc(-c2cc(C(=O)Nc3ccccc3F)nn2C2CCS(=O)(=O)C2)cc1 (stereo not drawn)
Fulfilled

Quick check, RP-LC retention time >= 800 s? CCOc1ccc(NC(=O)N2CCN(c3cc(C)nc(Nc4ccc(C)cc4)n3)CC2)cc1
Not fulfilled

Quick check, RP-LC retention time >= 800 s? N[C@H]1CCN(O)C1=O
Not fulfilled

Quick check, RP-LC retention time >= 800 s? COc1ccc(S(=O)(=O)CCC(=O)N2CCCC2c2nc(-c3ccc(C)cc3)no2)cc1 (stereo not drawn)
Fulfilled

***
Quick check, RP-LC retention time >= 800 s? CCN(CC)CCNC(=O)c1c(C)[nH]c(/C=C2\C(=O)Nc3ccc(F)cc32)c1C
Not fulfilled

Quick check, RP-LC retention time >= 800 s? Cc1cc(N2CCN(C(=O)c3c(F)cccc3F)CC2)nc(N2CCOCC2)n1
Not fulfilled

Quick check, RP-LC retention time >= 800 s? CCSCCOC(=O)C1=C(C)NC2=C(C(=O)C(C(=O)OC)C(C)C2)C1c1ccccc1OC (stereo not drawn)
Fulfilled

Quick check, RP-LC retention time >= 800 s? COCCOc1ccc2c(n1)CCN(C(=O)NC1CCCCC1)C2
Not fulfilled

Quick check, RP-LC retention time >= 800 s? COc1ccc(-c2csc3c(=O)n(Cc4ccccc4)cnc23)cc1OC
Fulfilled

Quick check, RP-LC retention time >= 800 s? Cc1ccc(-n2c(-c3ccc(Cl)cc3)cn3c4c(=O)n(C)c(=O)n(C)c4nc23)c(C)c1
Fulfilled

Quick check, RP-LC retention time >= 800 s? O=C(NCc1ccc(F)cc1)C1CCCN(c2nc3ccccc3n(Cc3ccccc3)c2=O)C1 (stereo not drawn)
Fulfilled

Quick check, RP-LC retention time >= 800 s? COc1c(C)cnc(Cn2ccn3nc(-c4ccc(F)cc4)c(CO)c3c2=O)c1C
Fulfilled
